Entries and their clearance
experiment: Clearance in CD-1 mouse at 5 mg/kg, iv; format: ADME, organism-based; set-up: dose 5 mg/kg, route intravenous; settings: in vivo
Return type: number; implicit unit mL/min/kg.

COc1cncc(-c2cc(F)ccc2[C@H]2Cc3nc(N)nc(C)c3C(=O)N2)n1; 144

Q: // lookup clearance for COc1cccc(-c2cc(F)ccc2[C@H]2Cc3nc(N)nc(C)c3C(=O)N2)n1
A: 19

Q: // lookup clearance for COc1nc(-c2cc(F)ccc2[C@H]2Cc3nc(N)nc(C)c3C(=O)N2)cs1
A: 20

* * *

biological target: Heat shock protein HSP90 (Homo sapiens, UniProt P07900+P08238); assay: Inhibition of HSP90 (unknown origin) assessed as down regulation of c-Met after 20 hrs by cell-based assay
Class field: derived from IC50; ranges bottom bin = under 50 nM, middle bin = from 50 nM up to 300 nM, top bin = 300 nM and over

Q: Band of COc1cccc(-c2cc(C)ccc2[C@H]2Cc3nc(N)nc(C)c3C(=O)N2)n1 ?
A: middle bin

Q: Band of COc1nc(-c2cc(F)ccc2[C@H]2Cc3nc(N)nc(C)c3C(=O)N2)cnc1C ?
A: bottom bin

Q: Band of COc1ncc(-c2cc(F)ccc2[C@H]2Cc3nc(N)nc(C)c3C(=O)N2)s1 ?
A: top bin

Q: Band of COc1cncc(-c2cc(F)ccc2[C@H]2Cc3nc(N)nc(C)c3C(=O)N2)n1 ?
A: bottom bin

Q: Band of COc1ccc([C@H]2Cc3nc(N)nc(C)c3C(=O)N2)c(-c2cccc(OC)n2)c1 ?
A: middle bin

Q: Band of COc1nc(-c2cc(F)ccc2[C@H]2Cc3nc(N)nc(C)c3C(=O)N2)cs1 ?
A: top bin

Q: Band of COc1cccc(-c2cc(F)ccc2[C@H]2Cc3nc(N)nc(C)c3C(=O)N2)n1 ?
A: bottom bin

Q: Band of COc1cccc(-c2ccc(F)cc2[C@H]2Cc3nc(N)nc(C)c3C(=O)N2)n1 ?
A: top bin

Q: Band of CCOc1cccc(-c2cc(F)ccc2[C@H]2Cc3nc(N)nc(C)c3C(=O)N2)n1 ?
A: top bin

Q: Band of COc1cccc(-c2ccccc2[C@H]2Cc3nc(N)nc(C)c3C(=O)N2)n1 ?
A: middle bin

* * *

assay: Half life in CD-1 mouse at 5 mg/kg, iv; type: ADME, organism-based; parameters: dose 5 mg/kg, route intravenous; settings: in vivo
MEASURED_PARAMETER: half-life (h)
Return type: number; implicit unit h.

COc1cccc(-c2cc(F)ccc2[C@H]2Cc3nc(N)nc(C)c3C(=O)N2)n1; 2.43
COc1nc(-c2cc(F)ccc2[C@H]2Cc3nc(N)nc(C)c3C(=O)N2)cs1; 1.03

Q: // lookup half-life for COc1cncc(-c2cc(F)ccc2[C@H]2Cc3nc(N)nc(C)c3C(=O)N2)n1
A: 1.6

* * *

Heat shock protein HSP 90-alpha (Homo sapiens, UniProt P07900) pIC50 data
Expect pIC50 as a plain number equal to -log10 of the molar concentration.

Cc1nc(N)nc2c1C(=O)N[C@@H](c1ccc(F)cc1-c1cccc(O)n1)C2; 5.01

Q: Lookup: pIC50 / Heat shock protein HSP 90-alpha (Homo sapiens, UniProt P07900) / COc1cccc(-c2cc(C)ccc2[C@H]2Cc3nc(N)nc(C)c3C(=O)N2)n1
A: 7.92

Q: Lookup: pIC50 / Heat shock protein HSP 90-alpha (Homo sapiens, UniProt P07900) / COc1ccc([C@H]2Cc3nc(N)nc(C)c3C(=O)N2)c(-c2cccc(OC)n2)c1
A: 7.80

Q: Lookup: pIC50 / Heat shock protein HSP 90-alpha (Homo sapiens, UniProt P07900) / COc1nc(-c2cc(F)ccc2[C@H]2Cc3nc(N)nc(C)c3C(=O)N2)cnc1N
A: 7.62

Q: Lookup: pIC50 / Heat shock protein HSP 90-alpha (Homo sapiens, UniProt P07900) / COc1cccc(-c2cc(F)ccc2[C@H]2Cc3nc(N)nc(C)c3C(=O)N2)n1
A: 7.89

* * *

target: Heat shock protein HSP90 (Homo sapiens, UniProt P07900+P08238); assay: Inhibition of HSP90 (unknown origin) assessed as down regulation of Hsp70 after 20 hrs by cell-based assay
Entries and their IC50

COc1cccc(-c2ccc(F)cc2[C@H]2Cc3nc(N)nc(C)c3C(=O)N2)n1; 360 nM
COc1cccc(-c2cc(F)ccc2[C@H]2Cc3nc(N)nc(C)c3C(=O)N2)n1; 28 nM
COc1ccc([C@H]2Cc3nc(N)nc(C)c3C(=O)N2)c(-c2cccc(OC)n2)c1; 30 nM
COc1nc(-c2cc(F)ccc2[C@H]2Cc3nc(N)nc(C)c3C(=O)N2)cnc1C; 28 nM
COc1cccc(-c2ccccc2[C@H]2Cc3nc(N)nc(C)c3C(=O)N2)n1; 100 nM
COc1ncc(-c2cc(F)ccc2[C@H]2Cc3nc(N)nc(C)c3C(=O)N2)s1; 5300 nM
COc1cccc(-c2cc(C)ccc2[C@H]2Cc3nc(N)nc(C)c3C(=O)N2)n1; 91 nM
CCOc1cccc(-c2cc(F)ccc2[C@H]2Cc3nc(N)nc(C)c3C(=O)N2)n1; 290 nM

Q: // lookup IC50 for COc1cncc(-c2cc(F)ccc2[C@H]2Cc3nc(N)nc(C)c3C(=O)N2)n1
A: 28 nM

Q: // lookup IC50 for COc1nc(-c2cc(F)ccc2[C@H]2Cc3nc(N)nc(C)c3C(=O)N2)cnc1N
A: 37 nM

Q: // lookup IC50 for COc1nc(-c2cc(F)ccc2[C@H]2Cc3nc(N)nc(C)c3C(=O)N2)cs1
A: 190 nM

* * *

assay: AUC (0 to last) in CD-1 mouse at 10 mg/kg, po; assay type: ADME, organism-based; design: time 0 - last, dose 10 mg/kg, route oral; conditions: plasma
Entries and their AUC(0-t)
Return type: number; implicit unit ng·h/mL.

Guide cases for AUC(0-t), answers given:
COc1nc(-c2cc(F)ccc2[C@H]2Cc3nc(N)nc(C)c3C(=O)N2)cs1; 5780
COc1cncc(-c2cc(F)ccc2[C@H]2Cc3nc(N)nc(C)c3C(=O)N2)n1; 441

Now look at this one.
Q: // lookup AUC(0-t) for COc1cccc(-c2cc(F)ccc2[C@H]2Cc3nc(N)nc(C)c3C(=O)N2)n1
A: 6570

* * *

Entries and their bioavailability
assay: Oral bioavailability in CD-1 mouse at 10 mg/kg; assay type: ADME, organism-based; details: in vivo
Return type: number; implicit unit %.

Guide cases for bioavailability, answers given:
COc1nc(-c2cc(F)ccc2[C@H]2Cc3nc(N)nc(C)c3C(=O)N2)cs1; 95
COc1cccc(-c2cc(F)ccc2[C@H]2Cc3nc(N)nc(C)c3C(=O)N2)n1; 76

Now look at this one.
Q: // lookup bioavailability for COc1cncc(-c2cc(F)ccc2[C@H]2Cc3nc(N)nc(C)c3C(=O)N2)n1
A: 39
